# ASSAY TARGET: GDP-loaded K-Ras (1-169) G12D, C51S, C80L, C118S (Homo sapiens, UniProt P01116, C118S/C51S/C80L/G12D)
# Construct: GDP-loaded K-Ras (1-169) G12D, C51S, C80L, C118S
# ASSAY OVERVIEW: K-Ras G12D(GDP) cross-linking assay (conjugate formation, TOF mass spectrometry)
# Type: binding
# CONDITION NOTES: Table 5; percent covalently modified K-Ras by MS; room temperature; typical compound conc. 2, 10, 25 μM, endpoints 1 and 24 h
# Experimental: Protocol: K-Ras G12D(GDP) Cross-Linking Assay […] GDP-loaded K-Ras (1-169) G12D, C51S, C80L, C118S and GDP-loaded K-Ras (1-169) C51S, C80L, C118S were adjusted to 50 μM in K-Ras assay buffer (12.5 mM HEPES, 75 mM NaCl and 1 mM MgCl2 at pH 7.4). […] At each time point, the reactions were analyzed immediately or quenched with 5 μL of a 5% formic acid solution and kept at 4° C. until analysis. […]
MEASURED ATTRIBUTE: G12D x-linking (%)

# example entries with known answers
Cc1cccc2cccc(N3CCc4c(nc(OC[C@@H]5CCCN5C)nc4N4CCN(C[C@@H]5CN5)[C@@H](CC#N)C4)C3)c12 [Example 101]; + (0 < x ≤ 20)
Cc1ccnc(C(C)C)c1-n1c(=O)nc(N2[C@H](C)CN(C(=O)[C@@H]3CN3)C[C@@H]2C)c2cc(F)c(-c3c(O)cccc3F)nc21 [Example 140]; 0
COCCN=C=N[C@H]1CCN(c2nc(OC[C@@H]3CCCN3C)nc3c2CCN(c2cccc4cccc(C)c24)C3)C1 [Example 74]; +++ (40 < x ≤ 100)
Cc1cccc2cccc(N3CCc4c(nc(OC[C@@H]5CCCN5C)nc4N4CC[C@@H](NC(=O)[C@H]5CN5)[C@@H](CC#N)C4)C3)c12 [Example 125]; + (0 < x ≤ 20)

Form field: reported G12D x-linking (%) of COCCN=C=N[C@H]1C[C@H](Nc2nc(OC[C@@H]3CCCN3C)nc3c2CCN(c2cccc4cccc(C)c24)C3)C1 [Example 72]
+++ (40 < x ≤ 100)

Any idea what G12D x-linking (%) was measured for Cc1cccc2cccc(N3CCc4c(nc(OC[C@@H]5CCCN5C)nc4N4CCC(N=C=NCCN(C)c5ccncn5)CC4)C3)c12 [Example 92] ?
+++ (40 < x ≤ 100)

Which G12D x-linking (%) value is on record for Cc1cccc2cccc(N3CCc4c(nc(OC[C@@H]5CCCN5C)nc4N4CCC(N=C=NCc5ccon5)CC4)C3)c12 [Example 86] ?
+++ (40 < x ≤ 100)

Give the measured G12D x-linking (%) of O=C([C@@H]1CN1)N1CCN2c3ncnc4cc(-c5c(O)cccc5F)c(Cl)c(c34)OCC[C@@H]2C1 [Example 134] .
+ (0 < x ≤ 20)

Look at this compound and give its reported G12D x-linking (%). Cc1ccnc(C(C)C)c1-n1c(=O)nc(N2C[C@@H](C)N(C(=O)[C@H]3CN3)C[C@@H]2C)c2cc(F)c(-c3c(O)cccc3F)nc21 [Example 138]
0

---

# ASSAY TARGET: GDP-loaded K-Ras (1-169) G12D, C51S, C80L, C118S (Homo sapiens, UniProt P01116, C118S/C51S/C80L/G12D)
# Construct: GDP-loaded K-Ras (1-169) G12D, C51S, C80L, C118S
# ASSAY OVERVIEW: K-Ras G12D(GDP) cross-linking assay (conjugate formation, TOF mass spectrometry)
# Type: binding
# CONDITION NOTES: Table 5; percent covalently modified K-Ras by MS; room temperature; typical compound conc. 2, 10, 25 μM, endpoints 1 and 24 h
MEASURED ATTRIBUTE: G12D x-linking (%)

Cc1cccc2cccc(N3CCc4c(nc(OC[C@@H]5CCCN5C)nc4N4CCN(C(=O)[C@@H]5CN5C)[C@@H](CC#N)C4)C3)c12 (stereo partly drawn); + (0 < x ≤ 20)
C#CCCN1CCC[C@H]1COc1nc2c(c(N3CCN(C(=O)[C@H]4CN4)[C@@H](CC#N)C3)n1)CCN(c1cccc3cccc(C)c13)C2; + (0 < x ≤ 20)
Cc1cccc2cccc(N3CCc4c(nc(OC[C@@H]5CCCN5C)nc4N4CC[C@@H](NC(=O)C5CN5)C4)C3)c12 (stereo partly drawn); + (0 < x ≤ 20)
CN1CCC[C@H]1COc1nc2c(c(N3CCN(C(=O)[C@@H]4CN4)[C@@H](CC#N)C3)n1)CCN(c1cccc3cccc(Cl)c13)C2; + (0 < x ≤ 20)
Cc1cccc2cccc(N3CCc4c(nc(OC[C@@H]5CCCN5C)nc4N4CCC(N=C=NC5CCN(c6ccccc6)CC5)CC4)C3)c12; + (0 < x ≤ 20)

Attention now turns to another entry.
What does the data say about its G12D x-linking (%)? Entry: "Cc1ccnc(C(C)C)c1-n1c(=O)nc(N2C[C@H](C)N(C(=O)[C@@H]3CN3)C[C@H]2C)c2cc(F)c(-c3c(O)cccc3F)nc21"
0
